src = ChEMBL document CHEMBL1165965

# Tested on: Hepatocyte growth factor receptor (Homo sapiens), P08581 [Y1235D]
# Sequence (P08581 whole entry Y1235D): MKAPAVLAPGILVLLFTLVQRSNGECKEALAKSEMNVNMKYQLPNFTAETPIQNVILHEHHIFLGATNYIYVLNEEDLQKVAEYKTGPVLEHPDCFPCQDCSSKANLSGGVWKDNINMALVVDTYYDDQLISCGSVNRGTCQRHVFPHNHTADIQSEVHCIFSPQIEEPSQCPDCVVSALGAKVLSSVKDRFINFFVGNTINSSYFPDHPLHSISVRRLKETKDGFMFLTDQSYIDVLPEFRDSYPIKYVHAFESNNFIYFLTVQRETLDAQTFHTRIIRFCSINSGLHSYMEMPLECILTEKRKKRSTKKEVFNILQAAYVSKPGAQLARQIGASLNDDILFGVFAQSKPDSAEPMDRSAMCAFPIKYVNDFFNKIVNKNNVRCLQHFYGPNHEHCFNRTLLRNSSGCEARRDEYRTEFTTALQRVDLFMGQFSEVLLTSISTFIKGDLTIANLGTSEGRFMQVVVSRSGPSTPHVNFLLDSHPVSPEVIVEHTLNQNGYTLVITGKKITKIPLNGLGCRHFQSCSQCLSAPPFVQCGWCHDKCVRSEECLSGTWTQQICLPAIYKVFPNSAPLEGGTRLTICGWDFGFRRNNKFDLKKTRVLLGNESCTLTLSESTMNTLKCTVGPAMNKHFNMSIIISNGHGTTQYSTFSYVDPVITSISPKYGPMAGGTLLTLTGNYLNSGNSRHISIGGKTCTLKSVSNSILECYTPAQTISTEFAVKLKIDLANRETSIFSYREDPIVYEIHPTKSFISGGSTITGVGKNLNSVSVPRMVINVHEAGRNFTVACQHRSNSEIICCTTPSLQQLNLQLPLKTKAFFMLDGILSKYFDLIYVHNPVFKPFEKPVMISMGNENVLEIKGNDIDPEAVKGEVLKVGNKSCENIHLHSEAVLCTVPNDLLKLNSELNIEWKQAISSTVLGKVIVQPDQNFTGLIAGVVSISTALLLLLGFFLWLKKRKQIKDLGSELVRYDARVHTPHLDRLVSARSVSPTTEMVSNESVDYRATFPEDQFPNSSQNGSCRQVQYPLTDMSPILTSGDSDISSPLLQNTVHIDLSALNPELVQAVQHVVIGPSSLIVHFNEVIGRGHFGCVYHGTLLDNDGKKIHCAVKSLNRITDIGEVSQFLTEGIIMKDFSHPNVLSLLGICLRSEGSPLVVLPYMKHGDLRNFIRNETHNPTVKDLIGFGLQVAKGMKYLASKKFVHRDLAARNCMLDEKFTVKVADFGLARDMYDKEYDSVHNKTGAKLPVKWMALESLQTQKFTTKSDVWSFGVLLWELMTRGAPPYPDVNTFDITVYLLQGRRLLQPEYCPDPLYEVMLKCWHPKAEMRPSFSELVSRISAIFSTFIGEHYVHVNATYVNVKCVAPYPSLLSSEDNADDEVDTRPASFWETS
# TEST DESCRIPTION: Inhibition of MET Y1235D mutant at 1 uM
OBSERVABLE: inhibition (%)

SMILES ENTRY	TARGET OR TEST SYSTEM	READOUT VALUE
CC(=O)N1CCN(c2cc(-c3cnc4c(c3)N(Cc3cc(Cl)ccc3C(F)(F)F)CCN4)ccn2)CC1	Hepatocyte growth factor receptor (Homo sapiens), P08581 [Y1235D]	67
FC(F)(F)c1ccc(Cl)cc1CN1CCNc2ncc(-c3ccnc(N4CCNCC4)c3)cc21	Hepatocyte growth factor receptor (Homo sapiens), P08581 [Y1235D]	75
CN1CCN(c2ccc(-c3cnc4c(c3)N(Cc3c(F)ccc(F)c3Cl)CCN4)cn2)CC1	Hepatocyte growth factor receptor (Homo sapiens), P08581 [Y1235D]	71

###

# TARGET OR TEST SYSTEM: Mast/stem cell growth factor receptor Kit (Homo sapiens)
# TEST DESCRIPTION: Inhibition of KIT at 1 uM
OBSERVABLE: inhibition (%)

SMILES ENTRY	READOUT VALUE
FC(F)(F)c1ccc(Cl)cc1CN1CCNc2ncc(-c3ccnc(N4CCNCC4)c3)cc21	96
O=C(c1ccc(-c2cnc3c(c2)N(Cc2cc(Cl)ccc2C(F)(F)F)CCN3)cc1)N1CCC(N2CCCC2)CC1	89.5
CN1CCN(c2ccc(-c3cnc4c(c3)N(Cc3cc(Cl)ccc3Cl)CCN4)cn2)CC1	87
CN1CCN(c2ccc(-c3cnc4c(c3)N(Cc3cc(F)ccc3F)CCN4)cn2)CC1	56.5
CC(=O)N1CCN(c2cc(-c3cnc4c(c3)N(Cc3cc(Cl)ccc3C(F)(F)F)CCN4)ccn2)CC1	75
CN1CCN(c2ccc(-c3cnc4c(c3)N(Cc3c(F)ccc(F)c3Cl)CCN4)cn2)CC1	73

###

# TARGET OR TEST SYSTEM: Receptor-interacting serine/threonine-protein kinase 1 (Homo sapiens)
# TEST DESCRIPTION: Inhibition of RIPK1 at 1 uM
Each record here notes measured inhibition.

Observe how each entry below is paired with its result.
SMILES ENTRY	TARGET OR TEST SYSTEM	inhibition
O=C(O)c1ccc(-c2cnc3c(c2)N(Cc2cc(Cl)ccc2C(F)(F)F)CCN3)cc1	Receptor-interacting serine/threonine-protein kinase 1 (Homo sapiens)	< 50%
CN1CCN(c2ccc(-c3cnc4c(c3)N(Cc3cc(Cl)ccc3Cl)CCN4)cn2)CC1	Receptor-interacting serine/threonine-protein kinase 1 (Homo sapiens)	< 50%
FC(F)(F)c1ccc(Cl)cc1CN1CCNc2ncc(-c3ccnc(N4CCNCC4)c3)cc21	Receptor-interacting serine/threonine-protein kinase 1 (Homo sapiens)	< 50%
CN1CCN(c2ccc(-c3cnc4c(c3)N(Cc3cc(F)ccc3F)CCN4)cn2)CC1	Receptor-interacting serine/threonine-protein kinase 1 (Homo sapiens)	< 50%
CC(=O)N1CCN(c2cc(-c3cnc4c(c3)N(Cc3cc(Cl)ccc3C(F)(F)F)CCN4)ccn2)CC1	Receptor-interacting serine/threonine-protein kinase 1 (Homo sapiens)	< 50%

Param item = `CN1CCN(c2ccc(-c3cnc4c(c3)N(Cc3cc(Cl)ccc3C(F)(F)F)CCN4)cn2)CC1` ; retrieve measured inhibition. < 50%

Param item = `COC1CCN(C(=O)c2ccc(-c3cnc4c(c3)N(Cc3cc(Cl)ccc3C(F)(F)F)CCN4)cc2)CC1` ; retrieve measured inhibition. < 50%

Param item = `O=C(c1ccc(-c2cnc3c(c2)N(Cc2cc(Cl)ccc2C(F)(F)F)CCN3)cc1)N1CCCCC1` ; retrieve measured inhibition. < 50%

Param item = `CN1CCN(c2ccc(-c3cnc4c(c3)N(Cc3c(F)ccc(F)c3Cl)CCN4)cn2)CC1` ; retrieve measured inhibition. < 50%

Param item = `O=C(c1ccc(-c2cnc3c(c2)N(Cc2cc(Cl)ccc2C(F)(F)F)CCN3)cc1)N1CCC(N2CCCC2)CC1` ; retrieve measured inhibition. < 50%
